Listing of entries alongside the reported TGI.
- Tested on: COLO 205 colon
- assay_explanation: NCI tumour cell line growth inhibition, 48 h

In the examples that follow, each entry is paired with its recorded TGI.
Ask: Entry N#Cc1c(O)c(/C=N/c2ncccn2)c(=O)n2c1[nH]c1ccccc12 : reported TGI = ?
Result: > 100 µM

Ask: Try this compound too: CCOC(=O)NN(C(=O)OCC)c1c(C)cc(C)cc1C
Result: > 100 µM

Next:
Ask: Please look up its TGI: CCCCCCCCCCCCCCCCCCOCC(O)COP(=O)(O)OCC1OC(n2ccc(N)nc2=O)C(O)C1O (centres undefined)
Result: 29.5 µM

Ask: Entry to check: C#CCNCCN1C(=O)c2ccc3c4c(ccc(c24)C1=O)C(=O)N(CCNCC#C)C3=O
Result: 6.92 µM

Ask: What would you report for COC(=O)CCC(NC(=O)OC(C)(C)C)C(=O)NC(Cc1ccc(NC(=O)CCCC(C)=O)cc1)C(=O)NC(CCC(=O)OC)C(=O)OC (centres undefined) ?
Result: > 100 µM

Ask: Follow-up item: CC(=O)[O][Sn]([CH2]c1ccccc1)([CH2]c1ccccc1)[CH2]c1ccccc1
Result: > 6.79 µM

Ask: Another: CCO/C=N/C1=C(C#N)SC2=N/C(=C\c3ccccc3)C(=O)N21
Result: > 100 µM

Ask: Entry O=c1oc2cc(O)ccc2c(O)c1Cc1c(O)c2ccc(O)cc2oc1=O please
Result: > 100 µM

Ask: What about CC1C(C#N)(C#N)C(C#N)=C(N)C1(Cl)[N+](=O)[O-] (centres undefined) ?
Result: 18.5 µM
